- Target Entity: hDRD2 (Homo sapiens);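 note: agonist activity at human DRD2 in DRD2-expressing cells, read as intracellular calcium mobilization with a FLIPR Calcium 4 fluorescent dye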
- Sequence (P14416 whole entry): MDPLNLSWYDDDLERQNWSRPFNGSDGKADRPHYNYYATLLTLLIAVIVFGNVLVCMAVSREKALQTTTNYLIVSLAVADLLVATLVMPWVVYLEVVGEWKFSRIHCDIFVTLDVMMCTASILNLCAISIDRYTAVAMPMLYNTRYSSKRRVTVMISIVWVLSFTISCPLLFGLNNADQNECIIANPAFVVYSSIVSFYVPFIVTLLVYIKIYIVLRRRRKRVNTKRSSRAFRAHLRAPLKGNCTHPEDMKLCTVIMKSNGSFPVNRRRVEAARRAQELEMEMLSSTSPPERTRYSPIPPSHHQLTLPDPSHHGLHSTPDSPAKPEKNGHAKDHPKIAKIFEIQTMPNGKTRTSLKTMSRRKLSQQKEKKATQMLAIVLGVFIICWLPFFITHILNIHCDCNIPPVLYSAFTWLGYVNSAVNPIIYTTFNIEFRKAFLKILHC
- Assay Info: cell-based
- Design: host or cells: 'Cells expressing hDRD2'
- Stated Conditions: read-out: hDRD2 %Emax ± SEM
Bridge positions count the residues as written; N and C are the ends. Square brackets hold non-standard residues; d marks the D form. Peptide text beside a SMILES is read from it. * marks the point of attachment. X2 = CN1C[C@H](CSCC(=O)*)C[C@@H]2c3cccc4[nH]cc(c34)C[C@H]21; Phe(4-F) = N[C@@H](Cc1ccc(F)cc1)C(=O)O
Criterion: Emax strictly less than 90%. Met: rule met. Not met: rule not met.

Consider the following illustrative entries.
{"columns": ["Molecule", "Class Label"],
 "data": [
  ["C[C@@H](O)[C@@H]1NC(=O)[C@H](CCCCN)NC(=O)[C@@H](Cc2c[nH]c3ccccc23)NC(=O)[C@H](Cc2ccccc2)NC(=O)[C@H](Cc2ccccc2)NC(=O)[C@H](CCCNC(=N)N)NC(=O)[C@@H](NC[C@H](Cc2ccc(O)cc2)NC(=O)CSC[C@@H]2C[C@@H]3c4cccc5[nH]cc(c45)C[C@H]3N(C)C2)CCCCNC(=O)[C@H](Cc2ccccc2)NC1=O", "rule not met"],
  ["C[C@@H](O)[C@@H]1NC(=O)[C@H](CCCCN)NC(=O)[C@@H](Cc2c[nH]c3ccccc23)NC(=O)[C@H](Cc2ccncc2)NC(=O)[C@H](Cc2ccccc2)NC(=O)[C@H](CCCNC(=N)N)NC(=O)[C@H](NC[C@H](CCCCNC(=O)CSC[C@@H]2C[C@@H]3c4cccc5[nH]cc(c45)C[C@H]3N(C)C2)NC(=O)CSC[C@@H]2C[C@@H]3c4cccc5[nH]cc(c45)C[C@H]3N(C)C2)CCCCNC(=O)[C@H](Cc2ccccc2)NC1=O", "rule not met"],
  ["C[C@@H](O)[C@@H]1NC(=O)[C@H](CCCCN)NC(=O)[C@@H](Cc2c[nH]c3ccccc23)NC(=O)[C@H](Cc2ccccc2)NC(=O)[C@H](Cc2ccccc2)NC(=O)[C@H](CCCNC(=N)N)NC(=O)[C@H](NC[C@H](Cc2ccc(O)cc2)NC(=O)CSC[C@@H]2C[C@@H]3c4cccc5[nH]cc(c45)C[C@H]3N(C)C2)CCCCNC(=O)[C@H](Cc2ccccc2)NC1=O", "rule not met"],
  ["C[C@@H](O)[C@@H]1NC(=O)[C@H](CCCCN)NC(=O)[C@@H](Cc2c[nH]c3ccccc23)NC(=O)[C@H](Cc2ccccc2)NC(=O)[C@H](Cc2ccccc2)NC(=O)[C@H](CCCNC(=N)N)NC(=O)[C@H](NCCS(=O)(=O)C[C@@H]2C[C@@H]3c4cccc5[nH]cc(c45)C[C@H]3N(C)C2)CCCCNC(=O)[C@H](Cc2ccc(F)cc2)NC1=O", "rule not met"],
  ["C[C@@H](O)[C@@H]1NC(=O)[C@H](CCCCN)NC(=O)[C@@H](Cc2c[nH]c3ccccc23)NC(=O)[C@H](Cc2ccccc2)NC(=O)[C@H](Cc2ccccc2)NC(=O)[C@H](CCCNC(=N)N)NC(=O)[C@H](NC(=O)CSC[C@@H]2C[C@@H]3c4cccc5[nH]cc(c45)C[C@H]3N(C)C2)CCCCNC(=O)[C@H](Cc2ccc(F)cc2)NC1=O [Compound 34] (X2-[dK]RFF[dW]KT[Phe(4-F)]; lactam 1-C)", "rule met"]
]}

Now examine the next entry.
Q: For C[C@@H](O)[C@@H]1NC(=O)[C@H](CCCCN)NC(=O)[C@@H](Cc2c[nH]c3ccccc23)NC(=O)[C@H](Cc2ccncc2)NC(=O)[C@H](Cc2ccccc2)NC(=O)[C@H](CCCNC(=N)N)NC(=O)[C@H](NC[C@H](Cc2ccc(O)cc2)NC(=O)CSC[C@@H]2C[C@@H]3c4cccc5[nH]cc(c45)C[C@H]3N(C)C2)CCCCNC(=O)[C@H](Cc2ccccc2)NC1=O , is the recorded Emax below the cut-off of 90%?
Result: rule not met
